Could you please report measured MIC for the items listed next?
Test system: Enterococcus faecalis CCM 4224 (ATCC 29212)
Assay: Antibacterial microdilution broth (EUCAST), EF
Type: cell-based
Details: Enterococcus faecalis; read after 24 h; read-out: EF MIC

## Task Entry CCCCCCC(=O)Nc1nccnc1C(N)=O : reported MIC = ?
## Result > 125 µM

## Task Entry COC(=O)c1nccnc1NC(=O)C1CCCCC1 [Compound 27e] : reported MIC = ?
## Result > 500 µM

## Task Entry NC(=O)c1nccnc1NC(=O)c1ccc(Br)cc1 : reported MIC = ?
## Result > 500 µM

## Task Entry NC(=O)c1nccnc1NC(=O)Cc1ccc(F)cc1 : reported MIC = ?
## Result > 250 µM

## Task Entry NC(=O)c1nccnc1NC(=O)CCc1ccccc1 : reported MIC = ?
## Result > 500 µM

## Task Entry CN(C)C(=O)c1nccnc1NC(=O)c1ccc(Cl)cc1 : reported MIC = ?
## Result > 500 µM

## Task Entry NC(=O)c1nccnc1NC(=O)c1ccccc1F : reported MIC = ?
## Result > 500 µM

## Task Entry COC(=O)c1nccnc1NC(=O)c1ccc(OC)cc1 : reported MIC = ?
## Result > 500 µM

## Task Entry NC(=O)c1nccnc1NC(=O)c1ccccc1Cl : reported MIC = ?
## Result > 500 µM

## Task Entry Cc1ccc(C(=O)Nc2nccnc2C(N)=O)cc1 : reported MIC = ?
## Result > 500 µM

## Task Entry COC(=O)c1nccnc1NC(=O)c1cccc(Br)c1 [Compound 17e] : reported MIC = ?
## Result > 500 µM

* * *

Could you please report measured MIC for the items listed next?
System: Staphylococcus epidermidis CCM 4418 (ATCC 12228)
Assay: Antibacterial microdilution broth (EUCAST), SE
Assay type: cell-based
Settings: read after 24 h, read-out: SE MIC

## Task Given the entry COc1cccc(C(=O)Nc2nccnc2C(N)=O)c1 , what MIC was observed with Staphylococcus epidermidis CCM 4418 (ATCC 12228)?
## Result > 500 µM

## Task Given the entry NC(=O)c1nccnc1NC(=O)c1ccc(F)cc1 , what MIC was observed with Staphylococcus epidermidis CCM 4418 (ATCC 12228)?
## Result > 500 µM

## Task Given the entry Cc1ccc(C(=O)Nc2nccnc2C(N)=O)cc1 , what MIC was observed with Staphylococcus epidermidis CCM 4418 (ATCC 12228)?
## Result > 500 µM

## Task Given the entry CCCC(=O)Nc1nccnc1C(N)=O , what MIC was observed with Staphylococcus epidermidis CCM 4418 (ATCC 12228)?
## Result > 500 µM

## Task Given the entry NC(=O)c1nccnc1NC(=O)C1CCCCC1 , what MIC was observed with Staphylococcus epidermidis CCM 4418 (ATCC 12228)?
## Result > 500 µM

## Task Given the entry Cc1ccc(-c2nc3nccnc3c(=O)[nH]2)cc1 , what MIC was observed with Staphylococcus epidermidis CCM 4418 (ATCC 12228)?
## Result > 125 µM

## Task Given the entry NC(=O)c1nccnc1NC(=O)c1cc(Cl)cc(Cl)c1 , what MIC was observed with Staphylococcus epidermidis CCM 4418 (ATCC 12228)?
## Result > 500 µM

## Task Given the entry NC(=O)c1nccnc1NC(=O)c1ccccc1F , what MIC was observed with Staphylococcus epidermidis CCM 4418 (ATCC 12228)?
## Result > 500 µM

## Task Given the entry NC(=O)c1nccnc1NC(=O)c1ccccc1Br , what MIC was observed with Staphylococcus epidermidis CCM 4418 (ATCC 12228)?
## Result > 500 µM

## Task Given the entry COC(=O)c1nccnc1NC(=O)c1ccccc1Br [Compound 16e] , what MIC was observed with Staphylococcus epidermidis CCM 4418 (ATCC 12228)?
## Result > 500 µM

## Task Given the entry COC(=O)c1nccnc1NC(=O)c1ccc(C)cc1 , what MIC was observed with Staphylococcus epidermidis CCM 4418 (ATCC 12228)?
## Result > 500 µM

## Task Given the entry COc1ccc(C(=O)Nc2nccnc2C(N)=O)cc1 , what MIC was observed with Staphylococcus epidermidis CCM 4418 (ATCC 12228)?
## Result > 125 µM
